Reference for the values: patent US20190262327A1

Molecular target: T1, biotinylated synthetic human Amyloid beta 1-42 peptide (human, UniProt P05067 672-713, biotinylated (N-terminal biotin in Example 4))
T1 construct: domain: Amyloid beta 1-42 peptide; Numbers 1-42 count on the Amyloid beta peptide, not on APP; also called biotinylated human Amyloid beta 1-42; N-terminal biotin Abeta 1-42
T1 sequence (P05067 672-713 limits assumed): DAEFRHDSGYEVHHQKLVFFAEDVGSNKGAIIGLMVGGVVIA
Assay: SPR (ProteOn); biotinylated peptide on streptavidin chip, scFv in solution
measure name: pKd
Please note pKd is a logarithmic value: minus log10 of concentration in mol/L. Answer with that number alone.

| binder | pKd |
| --- | --- |
| Abet0379 scFv (scFv, V domains shown, not shown: small tags and cut ends, Purified scFv expressed in E. coli) VH: EVQLLESGGGLVQPGGSLRLSCAASGFDFAETPLWWVRQAPGERLEWVSVIGSNQNKTAYADSVKGRFTISRDNSKDTLYLQMNSLRAEDTAVYYCAREWMDHSRPYYYYGMDVWGQGTLVTVSS VL: QSVLTQPPSVSVSPGQTASITCSGHNLEDKFASWYQQKSGQSPVLVIYRDDKRPSGIPERFSASNSGHTATLTISGTQATDGADYYCATQDNFTRVFGGGTKLTVL | 9.49 |

Exercise: Specify measured pKd for Abet0328 scFv (scFv, V domains shown, not shown: small tags and cut ends, Purified scFv expressed in E. coli) VH: EVQLLESGGGLVQPGGSLRLSCAASRDPFKADTMWWVRQAPRKRLEWVSVIGAHTTNSAYADSVKGRFTISRDNSKNTLYLQMNSLRAEDTAVYYCAREWMDRSRPYYYYGMDVWGQGTLVTVSS VL: SYELTQPPSVSVSPGQTVSITCSGRNLEDKFASWYQQKPGQSPVLVIYRDDKRPSGVPERFSASNSGHTATLTISGTQATDEADYYCSSQDTVTRVFGGGTKLTVL .
Key: 9.14

Exercise: Specify measured pKd for Abet0371 scFv (scFv, V domains shown, not shown: small tags and cut ends, Purified scFv expressed in E. coli) VH: EVQLSESGGGLVQPGGSLRLSCAASHDAFPFDTMWWVRQAPGKGLEWVSVIGSSGGTTVYADSVKGRFTVSRDNSKNTLYLQMNSLRAEDTAVYYCAREWMDHSRPYYYYGMDVWGQGTLVTVSS VL: SYELTQPPSVSVSPGQTASITCSGHNISSSWVSWYQQKPGQSPVLVIYRDDKRPSGIPERFSASNSGHTATLTISGTQATDEADYYCSSQDTVTRVFGGGTKLTVL .
Key: 9.12
